- testedTarget: recombinant human CL receptor/RAMP1 (Homo sapiens, UniProt O60894+Q16602)
- Construct: membranes
- Sequence (Q16602 23-461): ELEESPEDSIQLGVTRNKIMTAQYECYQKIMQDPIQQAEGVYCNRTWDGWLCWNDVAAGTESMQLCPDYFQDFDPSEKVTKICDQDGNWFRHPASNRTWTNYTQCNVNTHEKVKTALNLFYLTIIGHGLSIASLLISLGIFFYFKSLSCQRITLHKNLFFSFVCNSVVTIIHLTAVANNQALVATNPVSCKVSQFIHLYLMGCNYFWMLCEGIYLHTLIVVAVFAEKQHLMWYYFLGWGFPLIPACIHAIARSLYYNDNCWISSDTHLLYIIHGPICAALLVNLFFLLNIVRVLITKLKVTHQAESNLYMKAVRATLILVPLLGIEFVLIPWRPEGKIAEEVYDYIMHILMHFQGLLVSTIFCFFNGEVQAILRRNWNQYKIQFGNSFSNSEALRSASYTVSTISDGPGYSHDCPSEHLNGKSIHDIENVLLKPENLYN
- Sequence (O60894 27-148): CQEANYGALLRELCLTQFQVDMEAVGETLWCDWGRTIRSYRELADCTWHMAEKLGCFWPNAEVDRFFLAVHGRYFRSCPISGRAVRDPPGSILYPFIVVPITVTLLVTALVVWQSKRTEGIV
- protocolNotes: Recombinant receptor binding assay (125I-hCGRP)
- appliedConditions: membranes of HEK 293 cells expressing recombinant human CL receptor/RAMP1; 10 pM 125I-hCGRP
outcomeMeasure: Ki
Just so you know, I need the unit written after the number.

Sample records with Ki:
Ask: Check the records and state Ki for C[C@@H]1[C@H](c2cc(F)cc(F)c2F)C[C@H](NC(=O)c2ccc3c(c2)C[C@@]2(C3)C(=O)NC(=O)N2C)C(=O)N1CC(F)(F)F
Reply: 0.042 nM

Ask: Answer with reported Ki of Cc1ccccc1[C@@H]1C[C@H](NC(=O)c2ccc3c(c2)C[C@@]2(C3)C(=O)NC(=O)N2C)C(=O)N(CC(F)(F)F)[C@@H]1C
Reply: 1.9 nM

Here is another molecule to look at.
Ask: Indicate its recorded Ki; the molecule in question is Cc1cccc([C@@H]2C[C@H](NC(=O)c3ccc4c(c3)C[C@@]3(C4)C(=O)NC(=O)N3C)C(=O)N(CC(F)(F)F)[C@@H]2C)c1
Reply: 1.8 nM

Sourced from patent US20140005214A1
